# study-system: human AMPK (α2β1γ1) (Homo sapiens, UniProt P54619+P54646+Q9Y478)
# Sequence (P54646 whole entry): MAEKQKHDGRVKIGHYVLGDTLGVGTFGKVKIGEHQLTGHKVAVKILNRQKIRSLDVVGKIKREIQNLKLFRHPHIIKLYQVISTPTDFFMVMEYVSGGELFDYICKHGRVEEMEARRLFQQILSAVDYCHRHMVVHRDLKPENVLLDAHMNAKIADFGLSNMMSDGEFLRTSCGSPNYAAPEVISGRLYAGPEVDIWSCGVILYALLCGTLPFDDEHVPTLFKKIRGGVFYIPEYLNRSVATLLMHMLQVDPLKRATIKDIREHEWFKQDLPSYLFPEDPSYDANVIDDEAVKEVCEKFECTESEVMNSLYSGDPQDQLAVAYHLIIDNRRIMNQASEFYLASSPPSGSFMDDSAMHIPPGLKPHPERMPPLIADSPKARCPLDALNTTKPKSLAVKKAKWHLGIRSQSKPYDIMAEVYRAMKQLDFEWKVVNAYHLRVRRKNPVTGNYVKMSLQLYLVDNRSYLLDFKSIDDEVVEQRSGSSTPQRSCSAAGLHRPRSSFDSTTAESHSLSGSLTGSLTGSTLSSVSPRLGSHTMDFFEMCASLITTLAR
# Sequence (Q9Y478 whole entry): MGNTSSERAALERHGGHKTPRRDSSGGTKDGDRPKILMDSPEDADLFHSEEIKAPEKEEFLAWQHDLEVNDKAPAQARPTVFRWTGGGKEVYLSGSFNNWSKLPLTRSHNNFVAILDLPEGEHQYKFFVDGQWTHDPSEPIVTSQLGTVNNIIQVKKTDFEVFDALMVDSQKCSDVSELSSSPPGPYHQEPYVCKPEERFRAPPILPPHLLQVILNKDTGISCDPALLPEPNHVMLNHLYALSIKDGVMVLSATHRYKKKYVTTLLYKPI
# Sequence (P54619 whole entry): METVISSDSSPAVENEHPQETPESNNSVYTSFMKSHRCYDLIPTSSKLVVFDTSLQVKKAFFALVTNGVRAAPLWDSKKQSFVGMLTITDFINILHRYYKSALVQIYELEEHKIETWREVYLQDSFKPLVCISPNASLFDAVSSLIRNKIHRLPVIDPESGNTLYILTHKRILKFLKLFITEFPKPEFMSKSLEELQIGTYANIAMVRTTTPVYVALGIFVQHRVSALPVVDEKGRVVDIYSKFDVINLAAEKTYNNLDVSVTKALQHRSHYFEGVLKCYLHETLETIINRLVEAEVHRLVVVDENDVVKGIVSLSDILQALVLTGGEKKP
# test-protocol: AMPK (α2β1γ1) activation at molecular level, HTRF KinEASE-STK S1 kinase assay
# setup-conditions: activation of human AMPK (α2β1γ1), 4 μM ATP, 45 min at 30° C.
// boundary case: EC50 equal to 6 µM maps to criterion not met; strictly smaller maps to criterion met

Some entries whose results are on file:
>>> df
                                   compound                              study_system       answer_label
0  CCOc1cc(CNC(=O)c2ccc(CN3C=C4C(=O)N(c5ccc(F)c(C(F)(F)F)c5)N=C4CC3)cc2)ccc1OC  human AMPK (α2β1γ1) (Homo sapiens, UniProt P54619+P54646+Q9Y478)  criterion not met
1  COC(=O)c1cccc(CN2CCC3=NN(c4ccc(F)c(C(F)(F)F)c4)C(=O)C3C2)c1 (stereo not drawn)  human AMPK (α2β1γ1) (Homo sapiens, UniProt P54619+P54646+Q9Y478)  criterion not met
2  COc1ccc(CNC(=O)c2ccc(CN3C=C4C(=O)N(c5ccc(F)c(C(F)(F)F)c5)N=C4CC3)c(C)c2)cc1OC  human AMPK (α2β1γ1) (Homo sapiens, UniProt P54619+P54646+Q9Y478)      criterion met
3  COc1ccc(CNC(=O)c2ccc(CN3CCc4c(c(=O)n(-c5ccc(F)c(C(F)(F)F)c5)n4C)C3)cc2)cc1OC  human AMPK (α2β1γ1) (Homo sapiens, UniProt P54619+P54646+Q9Y478)      criterion met
4  COc1cc(CNC(=O)c2ccc(CN3CCc4c(c(=O)n(-c5ccc(F)c(C(F)(F)F)c5)n4C)C3)cc2)ccc1OC(C)C  human AMPK (α2β1γ1) (Homo sapiens, UniProt P54619+P54646+Q9Y478)      criterion met

Continue with the next compound.
Qu. For this compound, is EC50 lower than 6 µM? "COc1ccc(CNC(=O)c2cccc(CN3C=C4C(=O)N(c5ccc(F)c(C(F)(F)F)c5)N=C4CC3)c2)cc1OC"
Ans. criterion met
